Molecular target: T1, TREK-1 (Mus musculus, UniProt P97438)
T1 chain: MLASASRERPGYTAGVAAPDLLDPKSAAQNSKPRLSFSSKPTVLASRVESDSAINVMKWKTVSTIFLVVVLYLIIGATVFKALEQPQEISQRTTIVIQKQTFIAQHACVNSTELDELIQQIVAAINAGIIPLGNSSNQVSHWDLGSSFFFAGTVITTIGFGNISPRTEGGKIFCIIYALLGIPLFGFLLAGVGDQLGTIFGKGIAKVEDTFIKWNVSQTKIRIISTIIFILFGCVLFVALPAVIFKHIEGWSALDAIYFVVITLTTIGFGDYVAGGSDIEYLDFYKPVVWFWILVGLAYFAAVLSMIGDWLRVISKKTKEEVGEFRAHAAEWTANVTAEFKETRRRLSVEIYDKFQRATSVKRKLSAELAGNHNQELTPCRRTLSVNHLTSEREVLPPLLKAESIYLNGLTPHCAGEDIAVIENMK
Experiment: radioligand competition
measured.attribute: pKd
In simple prose, pKd is minus the logarithm base ten of a concentration in moles per litre.

Quick one: pKd for QDRLDAPPPPAAPLPR [propeptide N-terminal fragment Gln1-Arg16 1-16] ?
6.00
